tested on: HEK-293T; experiment: Multiplex assay against HEK293T; assay type: toxicity, cell-based; details: human, 24 h, 1 µM, compound concentration 1 uM, replicate 2
// assign fulfilled if Population Apoptotic (%) falls strictly below 30%, else not fulfilled (ties count as not fulfilled)

Some solved cases for reference:
QUERY: I'd appreciate it if you could check whether C=CC(=O)Nc1cc2c(Nc3ccc(F)c(Cl)c3)ncnc2cc1OCCCN1CCOCC1.Cl.Cl [CANERTINIB DIHYDROCHLORIDE] has Population Apoptotic (%) smaller than 30%.
RESULT: fulfilled

QUERY: Same thing, different compound: `CN1CCN(c2ccc(OC(F)(F)F)c(Nc3ncc4c(n3)-c3c(c(C(N)=O)nn3CCO)CC4)c2)CC1`
RESULT: fulfilled

QUERY: Here is the next compound: CN1CCC[C@@H]1CCO[C@](C)(c1ccccc1)c1ccc(Cl)cc1.O=C(O)/C=C/C(=O)O [CLEMASTINE FUMARATE]
RESULT: not fulfilled

QUERY: Lookup `CNc1nc(NCc2ccc(NS(C)(=O)=O)cc2Cl)cc(-c2ccccn2)n1`
RESULT: fulfilled

QUERY: Also need `Cc1c(-c2ccc(O)cc2)n(Cc2ccc(OCCN3CCCCCC3)cc2)c2ccc(O)cc12` , thanks.
RESULT: fulfilled

Continuing:
QUERY: Would you kindly verify if Population Apoptotic (%) of C[C@@H](NCCCc1cccc(C(F)(F)F)c1)c1cccc2ccccc12.Cl [CINACALCET HYDROCHLORIDE] is strictly less than 30%?
RESULT: fulfilled

QUERY: Next compound: `c1cn2cc(-c3ccc4cn[nH]c4c3)nc(Nc3ccc(N4CCOCC4)cc3)c2n1`
RESULT: fulfilled

QUERY: Would you kindly repeat that for `OC1(c2ccc(Cl)cc2)CCN(Cc2c[nH]c3ccccc23)CC1` ?
RESULT: fulfilled

QUERY: Try the compound `COc1cc(-n2cnc3cc(-c4ccc(Cl)cc4)sc3c2=O)ccc1OCCN1CCCC1`
RESULT: fulfilled

QUERY: Check `Cc1csc2c(N[C@@H](C)CN3CCN(S(=O)(=O)c4ccc(Cl)c(Cl)c4)CC3)ncnc12` too.
RESULT: not fulfilled

QUERY: Same lookup for `Cc1nc(-c2cn3c(n2)-c2ccc(-c4cnn(C(C)(C)C(N)=O)c4)cc2OCC3)n(C(C)C)n1` , please.
RESULT: fulfilled

* * *

tested on: Fibroblast; assay: Multiplex assay against human fibroblast; format: toxicity, cell-based; conditions: 48 h, 10 µM, compound concentration 10 uM, replicate 2
Population Mitotic Cells (%) strictly under 20% means True; at 20% or over means False.

Some entries whose results are on file:
QUERY: Find out if reported Population Mitotic Cells (%) for `COc1cc2nccc(Oc3ccc(NC(=O)Nc4cc(C)on4)c(Cl)c3)c2cc1OC.O` is less than 20%
RESULT: False

QUERY: What about c1cn2cc(-c3ccc4cn[nH]c4c3)nc(Nc3ccc(N4CCOCC4)cc3)c2n1 [ENTOSPLETINIB] ?
RESULT: True

QUERY: Repeat for the following compound: `CN(C)C(=O)/C(C#N)=C/c1ccc(-c2nc3cnc4[nH]ccc4c3n2C2CCCCC2)o1`
RESULT: False

More entries:
QUERY: Record O=C1NCN(c2ccccc2)C12CCN(CCCOc1ccc(F)cc1)CC2 [SPIRAMIDE] : is its Population Mitotic Cells (%) strictly below 20%?
RESULT: False

QUERY: Would you mind doing Cc1c(-c2ccc(O)cc2)n(Cc2ccc(OCCN3CCCCCC3)cc2)c2ccc(O)cc12 [BAZEDOXIFENE] as well?
RESULT: True

* * *

test system: Fibroblast; assay: Multiplex assay against human fibroblast; format: toxicity, cell-based; conditions: 48 h, 1 µM, compound concentration 1 uM, replicate 1
Values of Population Mitotic Cells (%) strictly less than 30% map to t, and values of at least 30% map to f.

Previously resolved entries follow.
QUERY: Lab note: confirm whether the reported Population Mitotic Cells (%) for this compound is below 30%, equality not counting. compound: Cl.N#Cc1ccc2[nH]cc(CCCCN3CCN(c4ccc5oc(C(N)=O)cc5c4)CC3)c2c1 [VILAZODONE HYDROCHLORIDE]
RESULT: f

QUERY: Request: COc1ncc(-c2ccc3nccc(-c4ccnnc4)c3c2)cc1NS(=O)(=O)c1ccc(F)cc1F [OMIPALISIB]
RESULT: f

QUERY: Check `CC(C)(O)CNc1ncc(-c2ccnc(Nc3ccnc(Cl)c3)n2)c(CC2CC2)n1` too.
RESULT: t

QUERY: Lookup `Cn1cc(-c2[nH]c3cc(NC(=O)[C@H](N)C4CCCCC4)cc4c3c2C=NNC4=O)cn1`
RESULT: f

Now take the following compound into account.
QUERY: Item C[C@@H](NCCCc1cccc(C(F)(F)F)c1)c1cccc2ccccc12.Cl [CINACALCET HYDROCHLORIDE] : Population Mitotic Cells (%) beneath 30%, strictly?
RESULT: f

* * *

tested on: U2OS; assay: Incucyte cell viability with U2OS; format: toxicity, cell-based; conditions: human, 24 h, 10 µM, compound concentration 10 uM, replicate number 1, timepoint 24 hours; note: filed as whole numbers so only -1 and 0 and 1 occur
Parameter measured: Growth Rate
No unit in the answer, please; the number alone is enough.

// solved cases for Growth Rate follow
QUERY: Name the reported Growth Rate value associated with the compound `CCC(=O)Nc1cccc(Oc2nc(Nc3ccc(N4CCN(C)CC4)cc3OC)ncc2Cl)c1`
RESULT: 0

QUERY: Lookup `CS(=O)(=O)c1cccc(NC(=O)N(Cc2ccc(C(=O)Nc3nn[nH]n3)cc2)c2ccc(C3CCCCC3)cc2)c1`
RESULT: 1

QUERY: Item: `O=C(Nc1cnc(Oc2ccc(F)cc2)nc1)N1CCc2ncccc2[C@@H]1c1ccc(F)cc1`
RESULT: 0

QUERY: Another compound to look at: `C[C@H](c1ccc(F)cc1)N(Cc1ccc(Cl)c(C(=O)O)c1)C(=O)c1cnc2ccccc2c1`
RESULT: 1

QUERY: Query `CN(C)c1ncnc(-c2ccc3nc(Nc4cc(CN5CCN(C(=O)CC(F)(F)F)CC5)ccn4)[nH]c3c2)c1Cl` next
RESULT: 0

QUERY: Moving on to the next compound: `Cn1cnc2c(F)c(Nc3ccc(Br)cc3Cl)c(C(=O)NOCCO)cc21`
RESULT: 0

QUERY: Queued: `COc1cc(-c2cn([C@H]3CCc4c(F)cccc4N(CC(F)(F)F)C3=O)nn2)ccc1-n1cnc(C)c1`
RESULT: 0

QUERY: Entry `Cc1nc(-c2ccc(-c3ccc(C(=O)N4CCc5cc6c(cc54)C4(CCN(C)CC4)CO6)cc3)c(C)c2)no1` please
RESULT: 1

Next:
QUERY: Look up Growth Rate: `Br.Br.N=C(N)SCCc1c[nH]cn1`
RESULT: 0

QUERY: Also `CNc1nc(NCc2ccc(NS(C)(=O)=O)cc2Cl)cc(-c2ccccn2)n1` , if possible.
RESULT: 0

QUERY: Thanks! And `Cc1cc(Nc2nccc(C)n2)cc(-c2cnc([C@@]3(O)CC[C@H](C(=O)O)C(C)(C)C3)s2)c1` ?
RESULT: 0

QUERY: Let us now turn to CNCCC(Oc1ccc(C(F)(F)F)cc1)c1ccccc1.Cl (stereo unspecified) [FLUOXETINE HYDROCHLORIDE]
RESULT: 1

QUERY: And the next one, Cc1c(OCc2cccc(-c3ccc(C(=O)O)cc3)c2)cc2c(c1C)C(=O)C(C1CCCC1)C2 (stereo unspecified) ?
RESULT: 1

QUERY: Then what about the compound `Clc1cccc(-c2nnnn2Cc2cccnc2)c1Cl` ?
RESULT: 1

QUERY: Next: `N#Cc1c(O)nc(SCc2cccc(F)c2F)nc1C1CC1`
RESULT: 1

QUERY: Same lookup for `CS(=O)(=O)NC[C@H]1CC[C@H](Nc2nc3c(s2)CCSc2ccccc2-3)CC1` , please.
RESULT: 1

QUERY: Same lookup for CC(C)NCC(O)COc1ccc(CCOCC2CC2)cc1.Cl (stereo unspecified) [BETAXOLOL HYDROCHLORIDE] , please.
RESULT: 1

QUERY: Next up: `Cc1nc(C(=O)N2CCC[C@H]2Cc2nnc(-c3ccccc3)o2)c(-c2ccccc2F)s1`
RESULT: 0

QUERY: Would you kindly repeat that for `C=CC(=O)Nc1cccc(C(=O)Nc2ccc(Nc3cc(-c4[nH]c(SC)nc4C)ccn3)cc2)c1` ?
RESULT: 0

QUERY: Query `Cl.Cl.c1ccc([C@@H]2C[C@H]2NC2CCNCC2)cc1` next
RESULT: 1

QUERY: Input `O=S(=O)(c1ccccc1)N(CC(F)(F)F)c1ccc(C(O)(C(F)(F)F)C(F)(F)F)cc1`
RESULT: 1

QUERY: Another compound to look at: `Cc1cc(C)cc(-c2cnc3cc(Cl)c(-c4cccc(O)c4)cc3c2OCCCN)c1`
RESULT: 0

QUERY: What about this compound? COc1ccc(C2(O)OC(=O)C(c3ccc4c(c3)OCO4)=C2Cc2cc(OC)c(OC)c(OC)c2)cc1 (stereo unspecified)
RESULT: 0

QUERY: And then `Nc1c(C(=O)NCc2ccc(C(=O)NCCCC3CCCCC3)cc2)cnn1-c1ccccc1` , what is it?
RESULT: 1

QUERY: What would you report for `CNCCN1CCC(OCc2ccccc2)CC1` ?
RESULT: 1

QUERY: Another compound: `COc1ccc2cc(OCC3(C(=O)O)CN(C(=O)c4ccc(F)cc4)C3)ccc2c1`
RESULT: 1
